- Target: human acidic fibroblast growth factor (FGF-1) (Homo sapiens)
- Sequence (P05230 whole entry): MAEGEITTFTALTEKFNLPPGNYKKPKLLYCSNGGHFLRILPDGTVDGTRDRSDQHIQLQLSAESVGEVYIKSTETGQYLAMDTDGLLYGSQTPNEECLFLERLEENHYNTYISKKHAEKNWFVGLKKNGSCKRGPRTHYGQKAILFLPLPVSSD
- Assay comment: FGF-1 thermal aggregation (turbidity at 360 nm)
- Type: biochemical
- Test context: FGF-1 50 μg/mL, 50° C.; compound 1,000×; standard deviation in parenthesis
Observed property: inhibition index

Q. Bench note: what inhibition index did NCCCCC(=O)O [5-aminovalerate, 5-aminovaleric acid] show?
A. 1.1 (0.2)

Q. Would you kindly repeat that for NCCN ?
A. 2.2 (0.7)

Q. Would you kindly repeat that for NCCCCCN ?
A. 3.3 (0.7)
